Source listed as patent US20250381254A1.

experiment: Population PK model of duvoglustat in plasma and tissue; type: in vivo, human; conditions: human, plasma and tissue, typical value; read-out: Volume of distribution (V)
ASSAY_READOUT: Vd (L)

[[record]]
cpd_smiles = "OC[C@H]1NC[C@H](O)[C@@H](O)[C@@H]1O"
reported_value = 44.5

